Assay: DSSTox (CPDBAS) Carcinogenic Potency Database Summary SingleCellCall Results
Test Settings: animal chronic carcinogenicity bioassays, CPDB summary call
Active and inactive are the calls of the source.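 The calls were made as follows: active = a tumor-causing dose value with its tumor site reported for any sex and species group of a rodent or other animal cancer study; inconclusive = only studies judged inadequate by the national testing program; inactive = tested in at least one study, none positive.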
API: response.call in active, inactive

-- ask I would be grateful if you could indicate the recorded call for CC(Oc1c(Cl)cccc1Cl)C1=NCCN1 (stereo not given) .
-- reply inactive

-- ask Look up the recorded call for Nc1c(Cl)cc(Cl)cc1Cl in this test.
-- reply active

-- ask What outcome does the record of this test show for N[C@@H](CCC(=O)NNc1ccc(C(=O)O)cc1)C(=O)O ?
-- reply active

-- ask What call does the record list for O=C(c1ccccc1)C(O)c1ccccc1 (stereo not given) ?
-- reply inactive

-- ask Recorded test call requested for O[C@@H]([C@H](O)[C@@H](O)CBr)[C@@H](O)CBr
-- reply active

-- ask What did the test return for CC1(C)O[C@@H]2C[C@H]3[C@@H]4CCC5=CC(=O)C=C[C@]5(C)[C@@]4(F)[C@@H](O)C[C@]3(C)[C@]2(C(=O)CO)O1 ?
-- reply active

-- ask What classification did CC(C)N(C(=O)SC/C(Cl)=C/Cl)C(C)C end up with in this test?
-- reply active

-- ask For this molecule, state the assay outcome: CNC(=O)Oc1cc(C)c(N(C)C)c(C)c1
-- reply inactive

-- ask For CC(C)CN(N=O)C(N)=O , what call appears in the results of this test?
-- reply active

-- ask Short answer needed: outcome of this test for O=[N+]([O-])c1ccc2nc[nH]c2c1 ?
-- reply active

-- ask Tell me the recorded outcome of this test for Nc1nnc(-c2ccc([N+](=O)[O-])o2)s1 .
-- reply active

-- ask Recorded call for O=C(O)C(Cl)(Cl)Cl ?
-- reply active

-- ask Please state the recorded outcome for this molecule: ClC(Cl)(Cl)c1ccccc1
-- reply active

-- ask Please indicate how the test categorized Oc1ccc2ccccc2c1N=Nc1ccccc1 .
-- reply active

-- ask Dear all, I need the recorded test outcome for CC(=O)O[C@]1(C(C)=O)CC[C@H]2[C@@H]3C=C(Cl)C4=CC(=O)[C@@H]5C[C@@H]5[C@]4(C)[C@H]3CC[C@@]21C , thank you.
-- reply active
